Recorded values, source the supplement of paper PMC10567573.

B1: DVL3 (parent)
chain: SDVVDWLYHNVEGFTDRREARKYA

- Variants of: B1
- ASSAY METHOD TEXT: protein stability index of a GFP-peptide fusion (GPS, HEK-293T) (PSI 1-6); higher = more stable;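 further: lentivirally expressed fusions sorted by FACS into six bins by GFP to DsRed ratio, PSI derived from sequencing read proportions per bin multiplied by bin number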
- MEASUREMENT CONDITIONS: c terminus: a fixed tail appended
I would appreciate it if you labelled entries Satisfied when protein stability index is 3 or higher, otherwise Not satisfied.

SDVVDWLYHNVEGFNDRREARKYA [T15N] :: Satisfied
SDVVDWLYHNVVGFTDRREARKYA [E12V] :: Not satisfied
SDVQDWLYHNVEGFTDRREARKYA [V4Q] :: Satisfied
SDVVDWWYHNVEGFTDRREARKYA [L7W] :: Satisfied
SDVVDWMYHNVEGFTDRREARKYA [L7M] :: Satisfied

Exercise: Exam item: decide whether the reported protein stability index for SDVVDNLYHNVEGFTDRREARKYA [W6N] is at least 3.
Key: Satisfied

Exercise: For SDVVYWLYHNVEGFTDRREARKYA [D5Y] then?
Key: Not satisfied

Exercise: For SDFVDWLYHNVEGFTDRREARKYA [V3F] then?
Key: Not satisfied

Exercise: For SDVVDWLYHNFEGFTDRREARKYA [V11F] then?
Key: Not satisfied

Exercise: For SDVVDWLYHNVEGFTDRRCARKYA [E19C] then?
Key: Not satisfied

Exercise: For SDVVDWLYHNVEGFTDRREARKRA [Y23R] then?
Key: Satisfied

Exercise: For SDNVDWLYHNVEGFTDRREARKYA [V3N] then?
Key: Satisfied
